I'd appreciate it if you could supply hERG current change (%, negative = inhibition) at 10uM values for the items below.
- ASSAY SYSTEM: human ether-à-go-go-related gene (hERG) potassium channel (human, UniProt Q12809);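 further: peak tail current of the secondary pulse compared with the same well before compound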
- Sequence (Q12809 whole entry, looked up): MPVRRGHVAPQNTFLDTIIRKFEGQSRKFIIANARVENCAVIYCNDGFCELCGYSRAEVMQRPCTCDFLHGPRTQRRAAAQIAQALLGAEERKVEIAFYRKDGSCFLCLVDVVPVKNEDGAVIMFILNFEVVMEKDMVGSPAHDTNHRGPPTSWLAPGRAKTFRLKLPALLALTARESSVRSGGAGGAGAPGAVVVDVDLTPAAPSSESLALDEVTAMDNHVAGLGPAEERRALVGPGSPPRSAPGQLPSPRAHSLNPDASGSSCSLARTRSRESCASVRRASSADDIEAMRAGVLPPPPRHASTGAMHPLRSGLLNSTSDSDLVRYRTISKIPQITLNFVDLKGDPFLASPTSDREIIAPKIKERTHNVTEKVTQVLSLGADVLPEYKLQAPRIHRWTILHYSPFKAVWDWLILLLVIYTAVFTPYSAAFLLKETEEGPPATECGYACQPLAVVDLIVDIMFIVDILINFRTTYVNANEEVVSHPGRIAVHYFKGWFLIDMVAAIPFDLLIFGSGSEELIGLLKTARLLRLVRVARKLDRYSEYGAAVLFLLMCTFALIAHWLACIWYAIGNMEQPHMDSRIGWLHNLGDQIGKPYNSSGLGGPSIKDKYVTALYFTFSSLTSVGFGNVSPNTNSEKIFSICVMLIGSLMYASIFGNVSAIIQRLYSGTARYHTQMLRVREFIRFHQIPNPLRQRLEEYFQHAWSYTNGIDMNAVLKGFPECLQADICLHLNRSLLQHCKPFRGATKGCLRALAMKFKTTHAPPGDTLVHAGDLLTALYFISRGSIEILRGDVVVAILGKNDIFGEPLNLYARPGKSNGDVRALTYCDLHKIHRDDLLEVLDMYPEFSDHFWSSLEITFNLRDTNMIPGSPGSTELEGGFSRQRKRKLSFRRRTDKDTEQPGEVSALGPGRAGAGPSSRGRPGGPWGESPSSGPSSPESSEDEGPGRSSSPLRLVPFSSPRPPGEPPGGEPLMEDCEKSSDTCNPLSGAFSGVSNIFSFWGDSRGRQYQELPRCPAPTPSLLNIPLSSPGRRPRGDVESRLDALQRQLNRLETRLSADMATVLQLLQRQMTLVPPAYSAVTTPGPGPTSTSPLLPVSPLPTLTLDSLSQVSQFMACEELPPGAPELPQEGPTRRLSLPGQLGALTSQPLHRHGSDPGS
- EXPERIMENT NOTES: primary screen, population patch clamp on CHO cells stably expressing hERG; higher = less effect of the substance
Out of some 310,000 compounds screened, about 14,000 (4.5%) showed an effect of 50% or more. Effects have a minus sign here. This excerpt belongs to a sample that is enriched for strong results.
Provide the reading as a plain figure in %.

Entry COc1ccc(NC(=O)NCCCN2CCN(c3ccccc3F)CC2)cc1 has what hERG current change (%, negative = inhibition) at 10uM?
-63.6

Give the measured hERG current change (%, negative = inhibition) at 10uM of O=C(NCCCN1CCN(c2ccccc2F)CC1)Nc1ccccc1[N+](=O)[O-] .
-72.1

What value of hERG current change (%, negative = inhibition) at 10uM has been recorded for this entry: CCOc1ccc(NC(=O)NCCN2CCN(c3ccccc3F)CC2)cc1
-62.3

Need hERG current change (%, negative = inhibition) at 10uM of O=C(NCCCN1CCCC1)Nc1ccc(F)cc1 , thanks.
4.71

# hERG current change (%, negative = inhibition) at 10uM lookup, item O=C(NCCCN1CCCC1)Nc1ccccc1[N+](=O)[O-]
18.1

Which value of hERG current change (%, negative = inhibition) at 10uM has been reported for CCc1ccc(NC(=O)NCCN2CCN(c3ccc(OC)cc3)CC2)cc1 in the records?
-14.1

Item COc1ccc(NC(=O)CN2CCN(c3ccccc3F)CC2)cc1 has what recorded hERG current change (%, negative = inhibition) at 10uM?
-18.1

Consider the molecule O=C(Cc1ccccc1[N+](=O)[O-])N1CCN(c2ccccc2F)CC1 and give its measured hERG current change (%, negative = inhibition) at 10uM.
3.23

Fill in the blank: the reported hERG current change (%, negative = inhibition) at 10uM of O=C(NCCCN1CCN(c2ccccc2F)CC1)Nc1ccc(F)cc1 is ____.
-66.3

# get_value(readout='hERG current change (%, negative = inhibition) at 10uM', item= O=S(=O)(/N=C(/Nc1ccccc1F)c1ccccc1)c1ccccc1 )
4.57

###

- ASSAY SYSTEM: human ether-à-go-go-related gene (hERG) potassium channel (human);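 further: peak tail current of the secondary pulse compared with the same well before compound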
- EXPERIMENT NOTES: primary screen, population patch clamp on CHO cells stably expressing hERG; higher = less effect of the substance
Among all 310,000 compounds or so, about 14,000 (4.5%) showed an effect of 50% or more. Effects have a minus sign here. Many of the other results were omitted from the sample, so strong results are more common in it than they were.
Label Satisfied when hERG current change (%, negative = inhibition) at 10uM is at or above -20%; otherwise label Not satisfied.

Hi team, for CCc1ccc(N2CC(C(=O)OCC(=O)Nc3ccc(C(C)=O)cc3)CC2=O)cc1 (centres unmarked) , is the recorded hERG current change (%, negative = inhibition) at 10uM at or above -20%?
Satisfied

Entry COC(=O)Cn1c(=NC(=O)c2nc3ccccc3s2)sc2cc(S(C)(=O)=O)ccc21 : is its hERG current change (%, negative = inhibition) at 10uM no less than -20%?
Not satisfied

Item CC(=O)c1ccc(OC(=O)C2CC(=O)N(c3cccc(C)c3)C2)cc1 (centres unmarked) with hERG current change (%, negative = inhibition) at 10uM of -20% or above?
Satisfied

Decide: hERG current change (%, negative = inhibition) at 10uM of COC(=O)Cn1c(=NC(=O)c2nc3ccccc3s2)sc2cc(S(N)(=O)=O)ccc21 >= -20%?
Satisfied

Reported hERG current change (%, negative = inhibition) at 10uM reaches at least -20% for COCCn1c(=NC(=O)c2nc3ccccc3s2)sc2cc(S(C)(=O)=O)ccc21 ?
Not satisfied

Source: paper PMC4336329
